Tested on: Escherichia coli
Experiment Description: Antibacterial activity against Escherichia coli DSM 30083 after 16 hrs by microdilution assay
Format: functional
Assay Conditions: DSM 30083 = JCM 1649 = ATCC 11775, 16 h
Reported Property: MIC (µM)

[[record]]
molecule = "N=C(N)NCCC[C@H](NC(=O)[C@H](Cc1c[nH]c2ccccc12)NC(=O)[C@H](CCCNC(=N)N)NCc1cn(Cc2cc(Cn3cc(CN[C@@H](CCCNC(=N)N)C(=O)N[C@@H](Cc4c[nH]c5ccccc45)C(=O)N[C@@H](CCCNC(=N)N)C(=O)O)nn3)cc(Cn3cc(CN[C@@H](CCCNC(=N)N)C(=O)N[C@@H](Cc4c[nH]c5ccccc45)C(=O)N[C@@H](CCCNC(=N)N)C(=O)O)nn3)c2)nn1)C(=O)O"
study_system = "Escherichia coli"
assay_value = 13

[[record]]
molecule = "N=C(N)NCCC[C@H](NC(=O)[C@@H](Cc1c[nH]c2ccccc12)NCc1cn(Cc2cc(Cn3cc(CN[C@H](Cc4c[nH]c5ccccc45)C(=O)N[C@@H](CCCNC(=N)N)C(=O)N[C@H](Cc4c[nH]c5ccccc45)C(=O)O)nn3)cc(Cn3cc(CN[C@H](Cc4c[nH]c5ccccc45)C(=O)N[C@@H](CCCNC(=N)N)C(=O)N[C@H](Cc4c[nH]c5ccccc45)C(=O)O)nn3)c2)nn1)C(=O)N[C@H](Cc1c[nH]c2ccccc12)C(=O)O (stereo in doubt)"
study_system = "Escherichia coli"
assay_value = 12

[[record]]
molecule = "N=C(N)NCCC[C@H](NCc1cn(Cc2cc(Cn3cc(CN[C@@H](CCCNC(=N)N)C(=O)N[C@@H](Cc4c[nH]c5ccccc45)C(=O)O)nn3)cc(Cn3cc(CN[C@@H](CCCNC(=N)N)C(=O)N[C@@H](Cc4c[nH]c5ccccc45)C(=O)O)nn3)c2)nn1)C(=O)N[C@@H](Cc1c[nH]c2ccccc12)C(=O)O"
study_system = "Escherichia coli"
assay_value = 60


----------
Tested on: Acinetobacter baumannii
Experiment Description: Antibacterial activity against Acinetobacter baumannii DSM 30007 after 16 hrs by microdilution assay
Type: functional
Assay Conditions: DSM 30007, 16 h
Reported Property: MIC (µM)

[[record]]
compound = "N=C(N)NCCC[C@H](NCc1cn(Cc2cc(Cn3cc(CN[C@@H](CCCNC(=N)N)C(=O)N[C@@H](Cc4c[nH]c5ccccc45)C(=O)O)nn3)cc(Cn3cc(CN[C@@H](CCCNC(=N)N)C(=O)N[C@@H](Cc4c[nH]c5ccccc45)C(=O)O)nn3)c2)nn1)C(=O)N[C@@H](Cc1c[nH]c2ccccc12)C(=O)O"
study_system = "Acinetobacter baumannii"
reported_property = "MIC"
measure_unit = "µM"
assay_value = 30

[[record]]
compound = "CCc1c(Cn2cc(CN[C@H](Cc3c[nH]c4ccccc34)C(=O)N[C@@H](CCCNC(=N)N)C(=O)N[C@H](Cc3c[nH]c4ccccc34)C(=O)O)nn2)c(CC)c(Cn2cc(CN[C@H](Cc3c[nH]c4ccccc34)C(=O)N[C@@H](CCCNC(=N)N)C(=O)N[C@H](Cc3c[nH]c4ccccc34)C(=O)O)nn2)c(CC)c1Cn1cc(CN[C@H](Cc2c[nH]c3ccccc23)C(=O)N[C@@H](CCCNC(=N)N)C(=O)N[C@H](Cc2c[nH]c3ccccc23)C(=O)O)nn1 (stereo in doubt)"
study_system = "Acinetobacter baumannii"
reported_property = "MIC"
measure_unit = "µM"
assay_value = 32

[[record]]
compound = "N=C(N)NCCC[C@H](NC(=O)[C@H](Cc1c[nH]c2ccccc12)NC(=O)[C@H](CCCNC(=N)N)NCc1cn(Cc2cc(Cn3cc(CN[C@@H](CCCNC(=N)N)C(=O)N[C@@H](Cc4c[nH]c5ccccc45)C(=O)N[C@@H](CCCNC(=N)N)C(=O)O)nn3)cc(Cn3cc(CN[C@@H](CCCNC(=N)N)C(=O)N[C@@H](Cc4c[nH]c5ccccc45)C(=O)N[C@@H](CCCNC(=N)N)C(=O)O)nn3)c2)nn1)C(=O)O"
study_system = "Acinetobacter baumannii"
reported_property = "MIC"
measure_unit = "µM"
assay_value = 54


----------
Test system: Acinetobacter baumannii
Experiment Description: Antibacterial activity against Acinetobacter baumannii DSM 30007 after 16 hrs by microdilution assay
Format: functional
Assay Conditions: DSM 30007, 16 h
Quick reference: MIC of the listed items.
Reported Property: MIC

[[record]]
compound = "N=C(N)NCCC[C@H](NC(=O)[C@@H](Cc1c[nH]c2ccccc12)NCc1cn(Cc2cc(Cn3cc(CN[C@H](Cc4c[nH]c5ccccc45)C(=O)N[C@@H](CCCNC(=N)N)C(=O)N[C@H](Cc4c[nH]c5ccccc45)C(=O)O)nn3)cc(Cn3cc(CN[C@H](Cc4c[nH]c5ccccc45)C(=O)N[C@@H](CCCNC(=N)N)C(=O)N[C@H](Cc4c[nH]c5ccccc45)C(=O)O)nn3)c2)nn1)C(=O)N[C@H](Cc1c[nH]c2ccccc12)C(=O)O (stereo in doubt)"
assay_value = "> 100 µM"

[[record]]
compound = "N=C(N)NCCC[C@H](NC(=O)[C@H](Cc1c[nH]c2ccccc12)NCc1cn(Cc2cc(Cn3cc(CN[C@@H](Cc4c[nH]c5ccccc45)C(=O)N[C@@H](CCCNC(=N)N)C(=O)O)nn3)cc(Cn3cc(CN[C@@H](Cc4c[nH]c5ccccc45)C(=O)N[C@@H](CCCNC(=N)N)C(=O)O)nn3)c2)nn1)C(=O)O"
assay_value = "60 µM"

[[record]]
compound = "CCc1c(Cn2cc(CN[C@@H](Cc3c[nH]c4ccccc34)C(=O)N[C@@H](CCCNC(=N)N)C(=O)O)nn2)c(CC)c(Cn2cc(CN[C@@H](Cc3c[nH]c4ccccc34)C(=O)N[C@@H](CCCNC(=N)N)C(=O)O)nn2)c(CC)c1Cn1cc(CN[C@@H](Cc2c[nH]c3ccccc23)C(=O)N[C@@H](CCCNC(=N)N)C(=O)O)nn1"
assay_value = "15 µM"

[[record]]
compound = "CCc1c(Cn2cc(CN[C@@H](CCCNC(=N)N)C(=O)N[C@@H](Cc3c[nH]c4ccccc34)C(=O)N[C@@H](CCCNC(=N)N)C(=O)O)nn2)c(CC)c(Cn2cc(CN[C@@H](CCCNC(=N)N)C(=O)N[C@@H](Cc3c[nH]c4ccccc34)C(=O)N[C@@H](CCCNC(=N)N)C(=O)O)nn2)c(CC)c1Cn1cc(CN[C@@H](CCCNC(=N)N)C(=O)N[C@@H](Cc2c[nH]c3ccccc23)C(=O)N[C@@H](CCCNC(=N)N)C(=O)O)nn1"
assay_value = "26 µM"

[[record]]
compound = "O=C(O)c1cn(C2CC2)c2cc(N3CCNCC3)c(F)cc2c1=O"
assay_value = "24 µM"


----------
System: Escherichia coli
Experiment Description: Antibacterial activity against Escherichia coli DSM 30083 after 16 hrs by microdilution assay
Format: functional
Assay Conditions: DSM 30083 = JCM 1649 = ATCC 11775, 16 h
Reported Property: MIC (µM)

[[record]]
molecule = "O=C(O)c1cn(C2CC2)c2cc(N3CCNCC3)c(F)cc2c1=O [CIPROFLOXACIN]"
reported_property = "MIC"
reading_qualifier = "="
assay_value = 1.5

[[record]]
molecule = "CCc1c(Cn2cc(CN[C@@H](CCCNC(=N)N)C(=O)N[C@@H](Cc3c[nH]c4ccccc34)C(=O)N[C@@H](CCCNC(=N)N)C(=O)O)nn2)c(CC)c(Cn2cc(CN[C@@H](CCCNC(=N)N)C(=O)N[C@@H](Cc3c[nH]c4ccccc34)C(=O)N[C@@H](CCCNC(=N)N)C(=O)O)nn2)c(CC)c1Cn1cc(CN[C@@H](CCCNC(=N)N)C(=O)N[C@@H](Cc2c[nH]c3ccccc23)C(=O)N[C@@H](CCCNC(=N)N)C(=O)O)nn1"
reported_property = "MIC"
reading_qualifier = "="
assay_value = 13

[[record]]
molecule = "N=C(N)NCCC[C@H](NC(=O)[C@H](Cc1c[nH]c2ccccc12)NC(=O)[C@@H](N)CCCNC(=N)N)C(=O)NCc1cn(Cc2ccccc2)nn1"
reported_property = "MIC"
reading_qualifier = ">"
assay_value = 100

[[record]]
molecule = "CCc1c(Cn2cc(CN[C@@H](Cc3c[nH]c4ccccc34)C(=O)N[C@@H](CCCNC(=N)N)C(=O)O)nn2)c(CC)c(Cn2cc(CN[C@@H](Cc3c[nH]c4ccccc34)C(=O)N[C@@H](CCCNC(=N)N)C(=O)O)nn2)c(CC)c1Cn1cc(CN[C@@H](Cc2c[nH]c3ccccc23)C(=O)N[C@@H](CCCNC(=N)N)C(=O)O)nn1"
reported_property = "MIC"
reading_qualifier = "="
assay_value = 15

[[record]]
molecule = "CCc1c(Cn2cc(CN[C@@H](CCCNC(=N)N)C(=O)N[C@@H](Cc3c[nH]c4ccccc34)C(=O)O)nn2)c(CC)c(Cn2cc(CN[C@@H](CCCNC(=N)N)C(=O)N[C@@H](Cc3c[nH]c4ccccc34)C(=O)O)nn2)c(CC)c1Cn1cc(CN[C@@H](CCCNC(=N)N)C(=O)N[C@@H](Cc2c[nH]c3ccccc23)C(=O)O)nn1"
reported_property = "MIC"
reading_qualifier = "="
assay_value = 60

[[record]]
molecule = "CCc1c(Cn2cc(CN[C@H](Cc3c[nH]c4ccccc34)C(=O)N[C@@H](CCCNC(=N)N)C(=O)N[C@H](Cc3c[nH]c4ccccc34)C(=O)O)nn2)c(CC)c(Cn2cc(CN[C@H](Cc3c[nH]c4ccccc34)C(=O)N[C@@H](CCCNC(=N)N)C(=O)N[C@H](Cc3c[nH]c4ccccc34)C(=O)O)nn2)c(CC)c1Cn1cc(CN[C@H](Cc2c[nH]c3ccccc23)C(=O)N[C@@H](CCCNC(=N)N)C(=O)N[C@H](Cc2c[nH]c3ccccc23)C(=O)O)nn1 (stereo in doubt)"
reported_property = "MIC"
reading_qualifier = "="
assay_value = 16

[[record]]
molecule = "N=C(N)NCCC[C@H](NC(=O)[C@H](Cc1c[nH]c2ccccc12)NCc1cn(Cc2cc(Cn3cc(CN[C@@H](Cc4c[nH]c5ccccc45)C(=O)N[C@@H](CCCNC(=N)N)C(=O)O)nn3)cc(Cn3cc(CN[C@@H](Cc4c[nH]c5ccccc45)C(=O)N[C@@H](CCCNC(=N)N)C(=O)O)nn3)c2)nn1)C(=O)O"
reported_property = "MIC"
reading_qualifier = "="
assay_value = 60

